Biological target: Kallikrein-7 (Homo sapiens)
Sequence (P49862 whole entry): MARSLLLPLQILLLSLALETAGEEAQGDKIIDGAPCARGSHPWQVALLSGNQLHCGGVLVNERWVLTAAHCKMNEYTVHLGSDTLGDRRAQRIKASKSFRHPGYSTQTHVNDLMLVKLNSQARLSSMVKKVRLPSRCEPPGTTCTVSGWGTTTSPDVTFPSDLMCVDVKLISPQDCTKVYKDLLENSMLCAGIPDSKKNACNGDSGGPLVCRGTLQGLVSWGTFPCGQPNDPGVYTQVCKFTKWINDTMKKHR
Experiment: Inhibition of human recombinant KLK7 expressed in insect cell/baculovirus using Abz-KLYSSKQ-EDDnp as substrate by FRET analysis
Consider the following compounds; for each one, report its IC50.
Answers are plain numbers, in µM.

>>> print(df.to_string())
                                   compound  readoutname  measured
0  O=C(N[C@@H]1CO[C@H]2[C@@H]1OC[C@H]2OCc1ccccc1)/C(=C/c1cccnc1)NC(=O)c1ccccc1 (stereo in doubt)         IC50       196

Kindly give each listed record's IC50.
1. O=C(N[C@@H]1CO[C@H]2[C@@H]1OC[C@H]2OCc1ccccc1)/C(=C/c1cccs1)NC(=O)c1ccccc1 (stereo in doubt)
2. O=C(N[C@@H]1CO[C@H]2[C@@H]1OC[C@H]2OCc1ccccc1)/C(=C/c1ccc2c(c1)OCO2)NC(=O)c1ccccc1 (stereo in doubt)

[13.3, 205]

Kindly give each listed record's IC50.
1. O=C(N[C@@H]1CO[C@H]2[C@@H]1OC[C@H]2OCc1ccccc1)/C(=C/c1ccco1)NC(=O)c1ccccc1 (stereo in doubt)
2. CC(=O)N/C(=C\c1cccs1)C(=O)N[C@@H]1CO[C@H]2[C@@H]1OC[C@H]2OCc1ccccc1 (stereo in doubt)

[16.3, 161]

Reference source: ChEMBL document CHEMBL2086392
